- protocol-summary: qHTS of TDP-43 Inhibitors; also: nearly all actives have a fitted effect of over 50% in size
- condition-summary: TDP-43 expressing yeast growth rescue, BacTiter-Glo, 24 h; series mostly up to 46.1 µM
The whole screen tested about 410,000 compounds, of which about 7,200 (1.8%) were called active. Roughly 7% stayed inconclusive and do not appear here. Calls follow the shape of the dose curve; as a rule, active = well fitted activation curve with a large enough effect; inconclusive = small, poorly fitted or top-dose-only effect, or another doubt; inactive = no such curve, though single readings can be large or run the other way. What follows is part of a selection rich in actives, with near analogues and random picks from the rest.
Entry note: the call must match one of active, inactive

Reference set (5 entries):
CCC(=O)N1CCc2cc(S(=O)(=O)NC(Cc3ccccc3)C(=O)NCc3ccc(C)cc3)ccc21 (stereo not drawn) ... inactive
COc1ccc([C@H]2CC(=O)C=C(c3ccc(OC(F)(F)F)cc3)C2)cc1OC ... active
CCCCc1nn2c(=O)cc(COC(=O)c3ccc(NC(=O)c4ccccc4C)cc3)nc2s1 ... inactive
CS(=O)(=O)c1ccc(-c2nnc(NC(=O)c3ccc4c(c3)OCCO4)o2)cc1 ... inactive
CCCCC12CN3CC(C)(CN(C1)C3c1ccc(O)c(OC)c1)C2=O (stereo not drawn) ... inactive

-- ask Per the assay record, what outcome was assigned to "O=C(Nc1nc2c(s1)CCCC2)c1ccccc1F" ?
-- reply inactive

-- ask Would you mind telling me which call this test gave "CCCCc1c(-c2ccc(Br)cc2)ncn1CCc1ccccc1OC" ?
-- reply inactive

-- ask What did this assay record as the result for COc1ccc(-c2cc3c(c4c2ccn4C)C2CCC3C2)cn1 (stereo not drawn) ?
-- reply active

-- ask Dear all, I need the recorded test outcome for "COc1ccccc1CNC(=O)c1cc(-c2cc(F)ccc2OC)n[nH]1" , thank you.
-- reply active

-- ask Recorded test outcome, item "CC(C)Oc1cc(F)ccc1-c1cc(C(=O)Nc2ccc(F)cc2)[nH]n1"
-- reply inactive

---

- protocol-summary: qHTS of TDP-43 Inhibitors; also: nearly all actives have a fitted effect of over 50% in size; also: potency is read from the fitted curve at half-maximal effect
- condition-summary: TDP-43 expressing yeast growth rescue, BacTiter-Glo, 24 h; series mostly up to 46.1 µM
About 7,200 (1.8%) of roughly 410,000 compounds were called active. Another 7% or so got no clear call; they are omitted. Many of the other results were omitted from the sample, so actives are more common in it than they were.
attribute-measured: Potency

COc1ccc(-c2cn3c(n2)sc2cc(C(=O)Nc4ccccc4F)ccc23)cc1 ... inactive
CCc1ccc(NC(=O)c2cc(S(=O)(=O)NC3CCCCCC3)ccc2F)cc1 ... inactive
C=Cc1ccc(C(=O)N2CCCC(CCC(=O)N3CCN(c4ccccn4)CC3)C2)cc1 (stereo unspecified) ... 3.55 µM (active)
O=C(N/N=C\c1cc(Br)c(Br)o1)C1COc2ccccc2O1 (stereo unspecified) ... 11.2 µM (active)
Cc1ccc(C(=O)N/N=C\c2cc(Br)c(Br)o2)cn1 ... inactive

-- ask Specify reported Potency for the compound shown: "CCCCOC(=O)/C(C#N)=C/c1ccc(-c2cccc(C(F)(F)F)c2)o1"
-- reply inactive

-- ask Provide measured Potency value, entry: "O=C(O)c1c(CNCc2cccc(F)c2)c2ccccc2n1Cc1ccccc1"
-- reply inactive

---

- protocol-summary: qHTS of TDP-43 Inhibitors; also: nearly all actives have a fitted effect of over 50% in size
- condition-summary: TDP-43 expressing yeast growth rescue, BacTiter-Glo, 24 h; series mostly up to 46.1 µM
- Description: The goal of this project is to identify new chemical probes capable of reversing the toxicity associated with TDP-43 which is associated with frontotemporal lobar degeneration and amyotrophic lateral sclerosis. […] To this end, a miniaturized assay was developed to be screened against the Molecular Libraries Small Molecule Repository (MLSMR) to discover TDP-43 inhibitors. Please note that in the set-up this yeast-based assay compounds that inhibit as TDP-43, have a read-out as activators. […]
Out of some 410,000 compounds screened, about 7,200 (1.8%) were called active. About 7% were inconclusive and are not listed. The call rests on the fitted dose curve; in most records, active means well fitted activation curve with a large enough effect; inconclusive means small, poorly fitted or top-dose-only effect, or another doubt; inactive means no such curve, though single readings can be large or run the other way. Shown is part of a subset that was picked to be rich in actives.
# valid calls are YES = active, NO = inactive; nothing else

CCC(C)N(C(=O)CSc1ncnc2c1cnn2-c1ccccc1)C1CCS(=O)(=O)C1 (stereo unspecified) ... NO

-- ask How was CCCn1c(C2CCCN2c2nc(-c3ccc(OC)cc3)cs2)nc2ccccc21 (stereo unspecified) classified in this test?
-- reply NO

-- ask I would be grateful if you could indicate the recorded call for "COc1ccc(-c2csc(Nc3ccccn3)n2)cc1" .
-- reply YES

-- ask Entry "CC(C)Sc1ncnc2c1cnn2-c1ccccc1" : call = ?
-- reply YES

-- ask # lookup: test call for "O=[N+]([O-])c1ccc2c(c1)Nc1nc3ccccc3nc1N2"
-- reply YES

-- ask Outcome? "O=C1Nc2ccc([N+](=O)[O-])cc2C1=Nc1cccc(CO)c1"
-- reply NO

-- ask What was the test verdict on "COC(=O)CSc1ncnc2c1cnn2-c1ccc(C)cc1C" ?
-- reply YES

-- ask What call does the record list for CCN(C(=O)CSc1ncnc2c1cnn2-c1ccccc1)C1CCS(=O)(=O)C1 (stereo unspecified) ?
-- reply NO

-- ask For "Cc1cccc(Nc2nc(-c3ccccc3)cs2)n1" , what call appears in the results of this test?
-- reply YES

-- ask Tell me the recorded outcome of this test for "CCN(CC)C(=O)CSc1ncnc2c1cnn2-c1ccccc1" .
-- reply YES

-- ask Field: outcome | Entry: "COc1ccc(-c2csc(-c3c(N)c(C(=O)c4ccc(OC)c(OC)c4)n4ccccc34)n2)cc1"
-- reply NO

Cited source: PubChem BioAssay AID652104
